Listed here: items and their measured MIC.
System: Pseudomonas aeruginosa
assayComment: Antibacterial activity against Pseudomonas aeruginosa ATCC 27853 after 18 hrs by agar dilution method
Format: functional
assayContext: ATCC 27853, 18 h
Note: unit µM is implicit; provide only the numeric part.

Ask | Missing value: MIC, Pseudomonas aeruginosa, entry "CC(C)[C@@H](C(=O)O)n1cc(CN2CCN(c3cc4c(cc3F)c(=O)c(C(=O)O)cn4C3CC3)CC2)nn1" . Fill in?
Reply | 2440

Ask | Missing value: MIC, Pseudomonas aeruginosa, entry "CCn1cc(C(=O)O)c(=O)c2cnc(N3CCN(Cc4cn([C@@H](C)C(=O)O)nn4)CC3)nc21" . Fill in?
Reply | 1370

Ask | Missing value: MIC, Pseudomonas aeruginosa, entry "CCn1cc(C(=O)O)c(=O)c2cnc(N3CCN(Cc4cn(-c5ccccc5)nn4)CC3)nc21" . Fill in?
Reply | 1110

Ask | Missing value: MIC, Pseudomonas aeruginosa, entry "CCn1cc(C(=O)O)c(=O)c2cc(F)c(N3CCN(Cc4cn([C@H](C(=O)O)C(C)C)nn4)CC3)cc21" . Fill in?
Reply | 2500

Ask | Missing value: MIC, Pseudomonas aeruginosa, entry "CCn1cc(C(=O)O)c(=O)c2cnc(N3CCN(Cc4cn(-c5ccc([N+](=O)[O-])cc5)nn4)CC3)nc21" . Fill in?
Reply | 1010

Ask | Missing value: MIC, Pseudomonas aeruginosa, entry "CCn1cc(C(=O)O)c(=O)c2cnc(N3CCN(Cc4cn(CC(=O)N[C@@H](Cc5ccccc5)C(=O)O)nn4)CC3)nc21" . Fill in?
Reply | 2120

Ask | Missing value: MIC, Pseudomonas aeruginosa, entry "CC(C)C[C@@H](C(=O)O)n1cc(CN2CCN(c3cc4c(cc3F)c(=O)c(C(=O)O)cn4C3CC3)CC2)nn1" . Fill in?
Reply | 2370

----------
Listed here: items and their measured log10 MIC.
Tested on: Salmonella typhi
assayComment: Antibacterial activity against Salmonella typhi ATCC 19430 after 18 hrs by agar dilution method
Assay type: functional, Salmonella enterica subsp. enterica serovar Typhi
assayContext: Salmonella enterica, ATCC 19430, 18 h
Note the log scale: values are log10 of MIC expressed in µM.

> print(dat)
                                 smilestext  measuredendpoint  valuereported
1  O=C(Cn1cc(CN2CCN(c3cc4c(cc3F)c(=O)c(C(=O)O)cn4C3CC3)CC2)nn1)N[C@@H](Cc1ccccc1)C(=O)O         log10 MIC           3.31
2  CC(C)[C@@H](C(=O)O)n1cc(CN2CCN(c3cc4c(cc3F)c(=O)c(C(=O)O)cn4C3CC3)CC2)nn1         log10 MIC           3.39
3  CCn1cc(C(=O)O)c(=O)c2cnc(N3CCN(Cc4cn(CC(=O)N[C@@H](Cc5ccccc5)C(=O)O)nn4)CC3)nc21         log10 MIC           2.33
4  CCn1cc(C(=O)O)c(=O)c2cc(F)c(N3CCN(Cc4cn(-c5ccc(C)cc5)nn4)CC3)cc21         log10 MIC           1.51
5  CCn1cc(C(=O)O)c(=O)c2cc(F)c(N3CCN(Cc4cn([C@H](C(=O)O)C(C)C)nn4)CC3)cc21         log10 MIC           3.40
6    CCn1cc(C(=O)O)c(=O)c2cnc(N3CCNCC3)nc21         log10 MIC           0.90
7  CCn1cc(C(=O)O)c(=O)c2cnc(N3CCN(Cc4cn(-c5ccc([N+](=O)[O-])cc5)nn4)CC3)nc21         log10 MIC          -0.70

Pending molecule:
Ask | Requested read-out: log10 MIC. Entry: "O=C(O)c1cn(C2CC2)c2cc(N3CCNCC3)c(F)cc2c1=O"
Reply | 0.86
